Biological target: T1, glutathione S-transferase/human androgen receptor DNA binding domain (amino acids 505-635) (human, UniProt P10275 505-635)
T1 construct: Fusion protein obtained from Dr. Steven Balk; also called GST-DBD; not shown: glutathione S-transferase fusion partner
T1 sequence (looked up): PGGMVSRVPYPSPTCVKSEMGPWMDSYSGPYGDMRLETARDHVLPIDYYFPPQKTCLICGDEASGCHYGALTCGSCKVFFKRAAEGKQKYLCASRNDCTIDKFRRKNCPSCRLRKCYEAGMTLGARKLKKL
Assay: ECL competition binding assay (IGEN M8): peptide against GST-DBD binding to biotinylated ARE oligonucleotide;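 also: incubation in phosphate-buffered saline pH 7.2 with poly dI/dC, 200 ng GST-DBD, 3 ng oligonucleotide and 30 ng ruthenium-labeled antibody in 0.2 ml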
Decide using IC50 alone. Strictly below 20 µM: true. Equal to or above 20 µM: false.

Here are 6 binders together with their reported answers.
Ac-LTIESSSDEEEDPPAKRKAIF-NH2 (synthetic peptide of the series based on amino acids 423-548 of ARIP3; also called Cmpd No. 3) [Ac-LTIESSSDEEEDPPAKRKAIF-NH2]    false
Ac-IESSSDE-NH2 (truncation of Cmpd 10; also called Cmpd No. 53) [Ac-IESSSDE-NH2]    true
Ac-IESVSD-NH2 (variant of Cmpd 49 (IESSSD); also called Cmpd No. 36) [Ac-IESVSD-NH2]    true
Ac-IESFSD-NH2 (variant of Cmpd 49 (IESSSD); also called Cmpd No. 34) [Ac-IESFSD-NH2]    false
Ac-LTIEASSDEE-NH2 (also called Cmpd No. 20) [Ac-LTIEASSDEE-NH2]    true
Ac-TIESSS-NH2 (truncation of Cmpd 10; also called Cmpd No. 47) [Ac-TIESSS-NH2]    true

Enquiry: Problem: For the binder Ac-LTIESSSDAE-NH2 (also called Cmpd No. 23) [Ac-LTIESSSDAE-NH2] , is IC50 under 20 µM?
Return: true
